- System: Adenylate cyclase type 1 (Homo sapiens, UniProt Q08828)
- Sequence (Q08828 whole entry): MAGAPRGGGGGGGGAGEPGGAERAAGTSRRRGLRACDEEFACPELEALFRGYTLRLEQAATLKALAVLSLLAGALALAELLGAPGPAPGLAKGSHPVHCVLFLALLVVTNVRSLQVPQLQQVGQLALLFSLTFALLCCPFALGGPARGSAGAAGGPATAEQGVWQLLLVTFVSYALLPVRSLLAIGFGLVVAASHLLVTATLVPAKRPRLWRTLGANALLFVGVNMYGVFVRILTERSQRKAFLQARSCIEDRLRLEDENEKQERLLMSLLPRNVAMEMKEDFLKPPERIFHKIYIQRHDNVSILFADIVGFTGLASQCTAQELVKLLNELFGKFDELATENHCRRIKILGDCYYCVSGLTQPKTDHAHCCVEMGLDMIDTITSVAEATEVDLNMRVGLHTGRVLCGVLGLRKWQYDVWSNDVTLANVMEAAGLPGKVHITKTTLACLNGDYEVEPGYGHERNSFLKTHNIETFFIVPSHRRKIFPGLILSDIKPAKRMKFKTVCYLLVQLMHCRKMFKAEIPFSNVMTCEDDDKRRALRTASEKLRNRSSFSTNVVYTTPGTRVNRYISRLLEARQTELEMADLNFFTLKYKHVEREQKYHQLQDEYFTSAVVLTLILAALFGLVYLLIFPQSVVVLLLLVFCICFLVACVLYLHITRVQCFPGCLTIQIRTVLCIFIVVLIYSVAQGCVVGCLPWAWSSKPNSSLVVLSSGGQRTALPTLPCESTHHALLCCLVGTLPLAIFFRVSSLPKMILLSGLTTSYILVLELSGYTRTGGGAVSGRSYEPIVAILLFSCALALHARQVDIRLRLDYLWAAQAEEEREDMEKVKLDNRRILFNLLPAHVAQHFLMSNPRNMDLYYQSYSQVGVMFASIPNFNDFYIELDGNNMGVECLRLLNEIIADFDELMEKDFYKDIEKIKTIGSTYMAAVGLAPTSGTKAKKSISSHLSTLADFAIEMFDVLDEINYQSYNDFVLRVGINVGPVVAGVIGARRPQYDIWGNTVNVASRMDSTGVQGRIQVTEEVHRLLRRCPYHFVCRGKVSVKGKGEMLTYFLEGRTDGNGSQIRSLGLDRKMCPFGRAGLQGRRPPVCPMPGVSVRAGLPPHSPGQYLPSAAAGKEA
- Test: Conversion of [32P] ATP to [32P]-cyclic AMP mediated by adenylate cyclase 1
- Type: functional
- Details: read-out: EC50
Would you kindly list EC50 for each of these compounds?

// field: EC50; key: `C=C[C@@]1(C)CC(=O)[C@]2(O)[C@@]3(C)[C@@H](O)CCC(C)(C)[C@@H]3[C@H](OC(=O)NCCc3ccccn3)[C@H](O)[C@@]2(C)O1` ; value = 1800 nM

// field: EC50; key: `C=C[C@@]1(C)CC(=O)[C@]2(O)[C@@]3(C)[C@@H](O)CCC(C)(C)[C@@H]3[C@H](OC(=O)NCCC(=O)OCC)[C@H](O)[C@@]2(C)O1` ; value = 6500 nM

// field: EC50; key: `C=C[C@@]1(C)CC(=O)[C@]2(O)[C@@]3(C)[C@@H](O)CCC(C)(C)[C@@H]3[C@H](O)[C@H](OC(=O)NCCO)[C@@]2(C)O1` ; value = 1400 nM

// field: EC50; key: `C=C[C@@]1(C)CC(=O)[C@]2(O)[C@@]3(C)[C@@H](O)CCC(C)(C)[C@@H]3[C@H](OC(=O)NCCc3ccc(N)cc3)[C@H](O)[C@@]2(C)O1` ; value = 5100 nM

// field: EC50; key: `C=C[C@@]1(C)CC(=O)[C@]2(O)[C@@]3(C)[C@@H](O)CCC(C)(C)[C@@H]3[C@H](O)[C@H](OC(=O)NCCc3ccc(N)cc3)[C@@]2(C)O1` ; value = 1100 nM

// field: EC50; key: `C=CCNC(=O)O[C@H]1[C@H]2C(C)(C)CC[C@H](O)[C@]2(C)[C@@]2(O)C(=O)C[C@](C)(C=C)O[C@]2(C)[C@H]1O` ; value = 3500 nM

* * *

- System: UniProtKB Q08828
- Test: Inhibition of [125 I]6-IHPP-forskolin binding to adenylate cyclase 1
Would you kindly list IC50 for each of these molecules?

Measured on UniProtKB Q08828, `C=C[C@@]1(C)CC(=O)[C@]2(O)[C@@]3(C)[C@@H](O)CCC(C)(C)[C@@H]3[C@H](OC(=O)NCCOC)[C@H](OC(C)=O)[C@@]2(C)O1` has a documented IC50 of < 150 nM

Measured on UniProtKB Q08828, `C=C[C@@]1(C)CC(=O)[C@]2(O)[C@@]3(C)[C@@H](O)CCC(C)(C)[C@@H]3[C@H](OC(=O)NCCN)[C@H](OC(C)=O)[C@@]2(C)O1` has a documented IC50 of < 150 nM

Measured on UniProtKB Q08828, `C=C[C@@]1(C)CC(=O)[C@]2(O)[C@@]3(C)[C@@H](O)CCC(C)(C)[C@@H]3[C@H](OC(=O)NCCC(C)(C)C)[C@H](O)[C@@]2(C)O1` has a documented IC50 of > 150 nM

Measured on UniProtKB Q08828, `C=C[C@@]1(C)CC(=O)[C@]2(O)[C@@]3(C)[C@@H](O)CCC(C)(C)[C@@H]3[C@H](OC(=O)NCCN(C)C)[C@H](OC(C)=O)[C@@]2(C)O1` has a documented IC50 of < 150 nM

Measured on UniProtKB Q08828, `C=C[C@@]1(C)CC(=O)[C@]2(O)[C@@]3(C)[C@@H](O)CCC(C)(C)[C@@H]3[C@H](O)[C@H](OC(=O)NCC(C)C)[C@@]2(C)O1` has a documented IC50 of < 150 nM

Measured on UniProtKB Q08828, `C=CCNC(=O)O[C@H]1[C@@H](O)[C@H]2C(C)(C)CC[C@H](O)[C@]2(C)[C@@]2(O)C(=O)C[C@](C)(C=C)O[C@]12C` has a documented IC50 of > 150 nM
